Test system: FOXC2-expressing HMLER cells
MEASUREMENT_PROTOCOL: Cell Titer Glo viability of FOXC2-HMLER cells (high throughput screen and 10-point response)
Format: cell-based
DETAILS: Homo sapiens; scored relative to parent compound 3; 72 hours; read-out: Activity Score, inhibition of FOXC2-expressing HMLER cells by Formula III compounds
MEASUREMENT_KIND: IC50

Take a look at these entries with their results.
| COMPOUND | TEST_VALUE |
| --- | --- |
| COc1ccc(N2CCN(C(=O)c3ccc(C)c(-n4nnc5cccnc54)c3)CC2)cc1 | > 20 µM |
| Cc1ccc(C(=O)NCc2ccccc2)cc1-n1nnc2cccnc21 | > 20 µM |

Please state, for each entry, its recorded IC50.
1. Cc1cc(C(=O)Nc2cccc(CN3CCCC3)c2)ccc1-n1nnc2cccnc21
2. Cc1ccc(C)c(N2CCN(CCCNC(=O)c3cccc(-n4nnc5cccnc54)c3C)CC2)c1
3. Cc1c(C(=O)NCCCN2CCN(Cc3ccccc3)CC2)cccc1-n1nnc2cccnc21
4. Cc1cccc(CNC(=O)c2cccc(-n3nnc4cccnc43)c2C)c1
5. Cc1cccc(N2CCN(C(=O)c3ccc(C)c(-n4nnc5cccnc54)c3)CC2C)c1 (centres unmarked)
6. Cc1ccc(C(=O)NCc2ccc(N(C)C)cc2)cc1-n1nnc2cccnc21

["1 to 20 µM", "1 to 20 µM", "> 20 µM", "> 20 µM", "< 1 µM", "> 20 µM"]

---

What IC50 was measured for each of the following?
Tested on: FOXC2-expressing HMLER cells
MEASUREMENT_PROTOCOL: Cell Titer Glo viability of FOXC2-HMLER cells (high throughput screen and 10-point response)
Type: cell-based
DETAILS: Homo sapiens; scored relative to parent compound 3; 72 hours; read-out: Activity Score, inhibition of FOXC2-expressing HMLER cells by Formula III compounds
Description: For high throughput screening, FOXC2-HMLER and HMLER cells were plated at 10^3 cells per well in white 384-well plates in 50 μL of MEGM medium (Lonza). […] After 72-hour incubation, 30 μL of a Cell Titer Glo solution (diluted 1:6 in water, Promega) was dispensed into each well and luminance values were recorded using an Envision plate reader. […]

Take a look at these entries with their results.
| COMPOUND | MEASUREMENT_KIND | TEST_VALUE |
| --- | --- | --- |
| O=C(NCCCN1CCN(Cc2ccccc2)CC1)c1cccc(-n2nnc3cccnc32)c1 | IC50 | > 20 µM |
| Cc1cc(C(=O)NC2CCN(Cc3ccccc3)CC2)ccc1-n1nnc2cccnc21 | IC50 | 1 to 20 µM |
| Cc1cc(C(=O)NCCCN2CCN(C3CCCCC3)CC2)ccc1-n1nnc2cccnc21 | IC50 | > 20 µM |

Please state, for each entry, its recorded IC50.
1. CCCCN(CC)C(=O)c1cccc(-n2nnc3cccnc32)c1
2. Cc1c(C(=O)NCCCN2CCN(c3ccc(F)cc3)CC2)cccc1-n1nnc2cccnc21
3. CCN(Cc1ccccc1)C(=O)c1ccc(C)c(-n2nnc3cccnc32)c1
4. Cc1ccc(CN2CCC(CNC(=O)c3ccc(C)c(-n4nnc5cccnc54)c3)CC2)cc1
5. Cc1cccc(N2CCN(C(=O)c3cccc(-n4nnc5cccnc54)c3)CC2C)c1 (centres unmarked)

> 20 µM
> 20 µM
> 20 µM
1 to 20 µM
1 to 20 µM

Source listed as patent US11759461B2.
